The reported numbers originate from ChEMBL document CHEMBL4138221.

Assayed target: Hepatocyte growth factor receptor (Homo sapiens, UniProt P08581)
Sequence (P08581 whole entry): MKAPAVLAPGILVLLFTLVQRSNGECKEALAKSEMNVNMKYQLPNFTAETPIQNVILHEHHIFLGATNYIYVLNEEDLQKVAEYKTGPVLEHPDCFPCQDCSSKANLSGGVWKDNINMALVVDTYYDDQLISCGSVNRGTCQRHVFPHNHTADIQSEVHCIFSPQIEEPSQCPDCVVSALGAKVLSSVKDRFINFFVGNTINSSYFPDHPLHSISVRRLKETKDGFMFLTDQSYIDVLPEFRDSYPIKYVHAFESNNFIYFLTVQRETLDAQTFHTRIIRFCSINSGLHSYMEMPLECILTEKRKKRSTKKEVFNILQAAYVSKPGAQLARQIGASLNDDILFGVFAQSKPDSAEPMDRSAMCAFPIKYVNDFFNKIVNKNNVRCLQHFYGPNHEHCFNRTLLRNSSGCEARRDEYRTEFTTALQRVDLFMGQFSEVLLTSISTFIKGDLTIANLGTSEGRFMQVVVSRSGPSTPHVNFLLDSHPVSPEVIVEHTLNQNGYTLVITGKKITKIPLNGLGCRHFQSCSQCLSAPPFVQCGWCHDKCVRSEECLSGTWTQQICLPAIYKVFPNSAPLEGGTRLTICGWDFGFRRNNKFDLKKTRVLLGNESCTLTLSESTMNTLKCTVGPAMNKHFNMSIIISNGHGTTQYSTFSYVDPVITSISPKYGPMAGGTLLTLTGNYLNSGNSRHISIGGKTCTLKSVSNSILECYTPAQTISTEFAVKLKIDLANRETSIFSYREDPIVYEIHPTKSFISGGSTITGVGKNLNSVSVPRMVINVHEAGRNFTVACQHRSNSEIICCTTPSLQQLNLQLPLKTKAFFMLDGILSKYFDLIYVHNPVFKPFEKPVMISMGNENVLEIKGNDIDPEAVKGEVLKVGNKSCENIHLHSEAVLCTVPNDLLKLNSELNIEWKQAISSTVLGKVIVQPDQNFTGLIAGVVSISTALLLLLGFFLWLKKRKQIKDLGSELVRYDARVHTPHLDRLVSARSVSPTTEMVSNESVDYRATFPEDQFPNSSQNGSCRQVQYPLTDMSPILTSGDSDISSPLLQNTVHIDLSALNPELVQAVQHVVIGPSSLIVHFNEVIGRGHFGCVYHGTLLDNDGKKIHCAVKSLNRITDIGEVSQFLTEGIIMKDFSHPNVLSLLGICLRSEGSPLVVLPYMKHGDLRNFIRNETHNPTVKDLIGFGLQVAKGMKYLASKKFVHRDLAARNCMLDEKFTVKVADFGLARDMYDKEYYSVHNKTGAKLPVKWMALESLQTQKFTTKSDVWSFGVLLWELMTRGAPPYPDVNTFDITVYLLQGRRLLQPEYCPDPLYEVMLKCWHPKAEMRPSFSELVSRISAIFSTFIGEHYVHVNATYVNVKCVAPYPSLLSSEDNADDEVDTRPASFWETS
Test: Inhibition of human GST-tagged c-MET using KKKSPGEYVNIEFG as substrate preincubated for 20 mins followed by [gamma-33P]ATP addition and measured after 2 hrs by filter-binding assay
Readout name: IC50 (nM)
The answer is to be given in nM; state only the numeric part.

Fill blank: measured IC50 of the molecule COc1ccc(Cc2nnc3sc(-c4cc5ccccc5[nH]4)nn23)cc1 is ____.
190

----------
Tested on: HCT-116
Test: Antiproliferative activity against human HCT116 cells after 72 hrs by Alamarblue assay relative to control
Test settings: HCT-116, 72 h
Readout name: IC50 (nM)
Record the value in nM, omitting the unit from your answer.

Entry C[C@@H](Oc1cc(-c2cnn(C3CCNCC3)c2)cnc1N)c1c(Cl)ccc(F)c1Cl : reported IC50 = ?
254

----------
Readout name: pIC50
Hey, just a heads up that pIC50 is the negative log base 10 of the concentration in molar.

Can you look up pIC50 on Vascular endothelial growth factor receptor 2 (Homo sapiens, UniProt P35968) for COc1ccc(Cc2nnc3sc(-c4cc5ccccc5[nH]4)nn23)cc1 ?
5.48
